- Tested on: MDA-MB-231 breast
- method_description: NCI tumour cell line growth inhibition, 48 h
# TGI values compiled below
test_readout: TGI

> print(dat)
                                    molecule  test.readout  endpoint.value
 1  COC1C(OC(=O)c2ccc(C)[nH]2)C(O)C(Oc2ccc3c(O)c(NC(=O)c4ccc(O)c(CC=C(C)C)c4)c(=O)oc3c2Cl)OC1(C)C (stereo unspecified)           TGI         49.4 µM
 2  O=c1c(-c2nc3ccccc3c3ccccc3c2=O)nc2ccccc2c2ccccc12           TGI        > 100 µM
 3  CCCCCCCCCCCC/C=C\CC[C@@H](O)[C@H](O)CC[C@H](O)[C@@H]1CC[C@@H](CCCCCCCC2=C[C@H](C)OC2=O)O1           TGI         35.3 µM
 4  CCCC(=O)Nc1cc(C(=O)N2C[C@H]3C[C@@]34C2=CC(=O)c2[nH]cc(C)c24)n(COC)c1           TGI            3 µM
 5  COc1cc(N=Nc2cc(Cc3ccc(N(C)C)cc3)c(N)cc2N(C)C)c2ncccc2c1           TGI         2.17 µM
 6  CC(C)(C)OC(=O)Cn1ncn(NC(=O)Cc2ccccc2)c1=S           TGI         > 10 µM
 7                            OCCCN=C1CCCCC1           TGI        > 100 µM
 8  O=c1[nH]c2cc(Cl)ccc2nc1/C(=N\Nc1ccccc1)C(O)c1ccc2c(c1)OCO2 (stereo unspecified)           TGI        > 100 µM
 9        COc1ccc(-c2nc3ccccc3c(=O)[nH]2)cc1           TGI        > 100 µM
10  NCCCN(CCCCN(CCCN)CCCc1ccccc1)CCCc1ccccc1           TGI         4.39 µM
11  CCN(CC)c1ccc(/C=N/NC(=O)Cc2ccc(Nc3ccnc(C(F)(F)F)c3)cc2)c(O)c1           TGI        > 100 µM
